Origin of the recorded values: PubChem BioAssay

assay_text: small-molecule microarray binders of probe aDKK1, primary screen, biochemical, biotinylated probe, 635/667 nm fluorescence (AID 1099);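 note: score merges 667nm spot fluorescence with signal to noise across triplicate slides; reference of the scale not given here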
measurement_context: higher = more signal
Entries and their composite z-score values follow.
Just the number, please, no unit after it.

Ask: Need composite z-score, item `COCCOC(=O)N1C(=O)[C@@]2(c3cc(C#Cc4ccc(OC)cc4)ccc31)[C@H](C(=O)N1CCCCCCC1)[C@H]1C(=O)O[C@H](c3ccccc3)[C@H](c3ccccc3)N1[C@@H]2c1ccccc1OCCO`
Result: 2.5

Ask: Name the recorded composite z-score for `O=C1O[C@@H](c2ccccc2)[C@@H](c2ccccc2)N2[C@@H](c3ccc(O)cc3)[C@]3(C(=O)Nc4ccc(C#CC5=CCCCC5)cc43)[C@@H](C(=O)N3CCCCCCC3)[C@H]12` .
Result: 1.53

Ask: What measured composite z-score goes with `COc1ccc([Si](C)(C)[C@H]2[C@H](CC(=O)N3Cc4ccccc4C[C@H]3CO)O[C@@]3(C(=O)N(Cc4cccc(N5C(=O)c6cccc7cccc5c67)c4)c4ccccc43)[C@@H]2C)cc1` ?
Result: -0.37

Ask: What measured composite z-score goes with `COc1ccc(CCNC(=O)[C@@]2(Sc3ccc(C)cc3)CC(=O)N(C(C)C)[C@@H]2c2ccc(CO)cc2)cc1` ?
Result: 0.0055

----------
assay_text: small-molecule binders of probe aInhba, primary screen, biochemical, small-molecule microarray, 635/667 nm fluorescence (AID 1148);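 note: score merges 667nm spot fluorescence with signal-to-noise for antibody binding to printed compounds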
measurement_context: higher = more signal
observation_type: composite z-score

These recorded examples may help you get a feel for the data.
CC(C)(C)OC(=O)CC[C@]1(C(N)=O)N=C(c2ccc(OCCCO)cc2)O[C@H]1c1ccccc1CN=[N+]=[N-] ... 0.355
C=CCC(OC(C)=O)[C@@H]1[C@@H](N(Cc2cccc3ccccc23)C(=O)c2cccc3ccccc23)c2cc(OCCCO)ccc2N1C(=O)Cc1ccc2ccccc2c1 (stereo partly drawn) ... 0.0497
NCCCC[C@@H]1NC(=O)[C@H]2C[C@@H](C(=O)NCc3ccc(F)cc3)[C@@H](c3cccc(OCCO)c3)N2C1=O ... 0.122
CCN(CC)c1ccc(N2CC=CC34O[C@@H]5C=CCOC(=O)[C@@H]5[C@H]3C(=O)N(CCCO)[C@@H]4C2=O)cc1 (stereo partly drawn) ... -0.128
O=C1O[C@@H](c2ccccc2)[C@@H](c2ccccc2)N2[C@@H](c3ccc(OCCO)cc3)[C@]3(C(=O)Nc4ccc(C#CCCO)cc43)[C@@H](C(=O)Nc3nc4ccccc4s3)[C@H]12 ... 0.0291

Ask: Please report the recorded composite z-score for `CN1C(=O)[C@]2(CCC(=O)OC(C)(C)C)N=C(c3ccc(OCCCO)cc3)O[C@@H]2c2ccccc21` .
Result: 0.134

Ask: // returns reported composite z-score for input `COc1ccc([Si](C)(C)[C@H]2[C@H](CCn3cc([C@H](O)c4ccccc4)nn3)O[C@@]3(C(=O)N(c4ccccc4)c4ccccc43)[C@@H]2C)cc1`
Result: -0.0087

Ask: // composite z-score lookup, key: `CCOC(=O)C1=C[C@@H](C(C)(C)C)N(S(=O)(=O)c2ccc(C)cc2)[C@H]1c1ccccc1Cl`
Result: 0.029

----------
Tested on: XIP peptide (Xip251-270) binding
assay_text: small-molecule binders of XIP peptide, primary screen, biochemical, small-molecule microarray, fluorescence 635/667 nm, 0.1 µg/mL protein (AID 1182)
measurement_context: fluorescent protein binding, 635 nm, higher = more signal, called active from +8 up or from −8 down
observation_type: composite z-score
Please give the numeric answer without any surrounding text.

Reference set (3 entries):
CC(C)[Si](C#CCCCC#N)(O[C@H](c1ccccc1)c1cn([C@H](C)c2ccccc2)nn1)C(C)C ... -0.301
Cc1c(NC(=O)/C(C#N)=C/c2ccc(Cl)cc2)c(=O)n(-c2ccccc2)n1C ... 0.773
COCCn1c(C(=O)N2CCCC2)cc2c1C[C@H]1CN(C(=O)c3ccccc3)[C@@](Cc3ccccc3)(C(=O)OC)[C@@H]21 ... 1.06

Ask: Which measured composite z-score value corresponds to `CO[C@H]1O[C@H](CO)[C@@H](OC(=O)Nc2ccc(C(F)(F)F)cc2)[C@H](OC(=O)Nc2ccccc2-c2ccccc2)[C@@H]1OC(=O)Nc1ccccc1-c1ccccc1` ?
Result: 1.39

Ask: # lookup: composite z-score of `CN1C(=O)[C@]2(CCS(=O)(=O)c3ccccc3)N=C(c3ccc(OCCCO)cc3)O[C@@H]2c2ccccc21`
Result: 2.2

Ask: Looking for the measured composite z-score of N#Cc1ccc(C(O)C2C=CC3C(=O)N(c4ccccc4)C(=O)C3N2Nc2ccc([N+](=O)[O-])cc2)cc1 (stereo not drawn) , can you help?
Result: 1.04

Ask: What does the record list as composite z-score for `C=C(/C(=C/C[C@H](OC(=O)c1ccncc1)c1ccccc1OCCO)c1cc(C(=O)OC)ccc1OC)C(C)C` ?
Result: -0.0121

Ask: Query (molecule): `CC#CCO[Si](C#CCCCCCC)(C(C)C)C(C)C` ; field requested: composite z-score
Result: -0.0884

Ask: Query (molecule): `C=C(COC)C(=O)CC[C@@H](OC(=O)c1cccnc1)c1cccc(OCCO)c1` ; field requested: composite z-score
Result: -0.209

Ask: I have this molecule here, `CCOC(=O)C1=CC[C@@H](c2ccccc2)N(S(=O)(=O)C[Si](C)(C)C)[C@H]1c1ccccc1` , and I need its recorded composite z-score.
Result: 0.127

Ask: Tell me the measured composite z-score of `COC(=O)[C@@]1(CCS(=O)(=O)c2ccccc2)N=C(c2ccc(OCCCO)cc2)O[C@H]1c1ccccc1N=[N+]=[N-]` , please.
Result: 1.61

Ask: Dear colleague, I am looking for the recorded composite z-score of the following molecule: O=C1C2C=CC(C(O)c3ccc([N+](=O)[O-])cc3)N(Nc3ccccc3)C2C(=O)N1c1ccccc1 (stereo not drawn)
Result: 0.392

Ask: Query: composite z-score; subject: `O=C1N(CCS(=O)(=O)c2ccccc2)c2ccccc2[C@@H]2OC(c3ccc(OCCCO)cc3)=N[C@]12CCS(=O)(=O)c1ccccc1`
Result: 3.92
